Data provenance: paper PMC5108039

targetEntity: HLA-DRB1*04:04 (plate-bound, peptide-binding assays) (human)
methodDescription: competition peptide-binding assay on plates
pIC50: −log10 of the molar value. Square brackets hold non-standard residues; d marks the D form. Ends that are not written are not given here. Cit = NC(=O)NCCC[C@H](N)C(=O)O
outcomeMeasure: pIC50

binder	pIC50
LPVGAANF[Cit]EAM[Cit]IG [α-enolase peptide Cit171 (residues 171–185), citrullinated]	< 4.30
MSILKIHA[Cit]EIFDS[Cit] [α-enolase peptide Cit1 (residues 1–15), citrullinated]	< 4.30

# input binder: MSILKIHAREIFDSR [α-enolase peptide 1 (residues 1–15), native] ; wanted: its pIC50
# output < 4.30
